Data credit: paper PMC5464773

# MEASUREMENT_TARGET: T1, Myc-tagged Bcl-w (human, UniProt Q92843 1-193)
# T1 chain: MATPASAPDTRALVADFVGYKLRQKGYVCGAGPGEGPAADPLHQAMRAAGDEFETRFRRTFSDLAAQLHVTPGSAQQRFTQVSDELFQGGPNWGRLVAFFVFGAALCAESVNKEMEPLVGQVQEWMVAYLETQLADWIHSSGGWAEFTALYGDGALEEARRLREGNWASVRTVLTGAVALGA
# ASSAY_PROTOCOL: FP
I'd be grateful if you could share measured pKi for these entries.
Numbers only, as −log10 of the molar value.

Ac-QWAREIGAQLRRMADDLNAQYER-NH2 [PUMA BH3 peptide (23 residues)]; 8.52

Kindly review the next binder as well.
Data request: What does the data say about its pKi? Entry: Ac-QWIREIAAGLRRFADILNAQVER-NH2 (designed binder) [FS3]
Data returned: 6.11
